Reported values of kon for individual entries
molecular target: T1, human ROR1 Frizzled domain (hROR1-Fz) (human, UniProt Q01973 165-305); test: SPR Biacore, IgG on anti-Fc, ROR1-Fz analyte
T1 construct: Acro Biosystems, made in HEK293
T1 sequence (Q01973 other isoform, or with tags, fused parts or gaps): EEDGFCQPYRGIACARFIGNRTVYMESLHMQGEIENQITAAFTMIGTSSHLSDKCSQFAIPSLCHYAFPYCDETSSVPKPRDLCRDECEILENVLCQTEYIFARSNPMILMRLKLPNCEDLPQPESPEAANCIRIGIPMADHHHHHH
The reply should contain only the number, in M⁻¹ s⁻¹.

Binder	kon [M⁻¹ s⁻¹]
SRP2196-A06 (antibody, V domains shown, His/FLAG-tagged IgG1) VH: EVQLVESGGGLVQPGGSLRLSCAASGFNITGYYIHWVRQAPGKGLEWVGQISPNSGSTHQADSVKGRFTISADTSKNTAYLQMNSLRAGDTAVYYCARDSRRYVRGWDYWGQGTLVTVSS VL: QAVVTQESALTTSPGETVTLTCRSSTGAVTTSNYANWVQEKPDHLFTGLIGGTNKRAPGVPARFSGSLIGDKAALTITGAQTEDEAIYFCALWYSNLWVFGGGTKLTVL	180000

Now look at this entry.
INPUT: Form field: reported kon of SRP2196-B06 (antibody, V domains shown, His/FLAG-tagged IgG1) VH: EVQLVESGGGLVQPGGSLRLSCAASGFNITGYYIHWVRQAPGKGLEWVGQISPNSGSTYSADSVKGRFTISADTSKNTAYLQMNSLRAEDTAVYYCARDSRRYVLSWDYWGQGTLVTVSS VL: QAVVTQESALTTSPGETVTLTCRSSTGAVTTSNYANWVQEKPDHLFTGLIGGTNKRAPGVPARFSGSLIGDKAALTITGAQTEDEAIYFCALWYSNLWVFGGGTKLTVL
OUTPUT: 142000

Provenance of the data: patent US20240058465A1
